Target: HLA-A*02:01 (Homo sapiens, UniProt P04439, D140Y/D185E/D98H/E176V/E277Q/G131W/G231S/I119V/I121R/I166T/I218V/L300P/L318F/N151K/N90K/P208A/P217A/Q86G/Q94H/R138H/R169H/T345S)
Assay: MHC binding assay (UV-ligand exchange, β2m ELISA)
Conditions: MHC class I binding score; binding to HLA-A*02:01 ranged by peptide exchange yield (UV-ligand exchange, β2m ELISA)
Measured Endpoint: Peptide exchange

- Substance: "45 (FVYGEPREL; listed as Homo sapiens) [compound 45]"
  Measured Endpoint: "Peptide exchange"
  Result: "+++ (>50 = +++)"
- Substance: "15 (VLYDPVVGC; listed as Homo sapiens) [compound 15]"
  Measured Endpoint: "Peptide exchange"
  Result: "++++ (>75% = ++++)"
- Substance: "129 (VLPDDLSGV; listed as Homo sapiens) [compound 129]"
  Measured Endpoint: "Peptide exchange"
  Result: "+++ (>50 = +++)"
- Substance: "205 (SLKSKVLSV; listed as Homo sapiens) [compound 205]"
  Measured Endpoint: "Peptide exchange"
  Result: "++++ (>75% = ++++)"
- Substance: "85 (GLLDVMYQV; listed as Homo sapiens) [compound 85]"
  Measured Endpoint: "Peptide exchange"
  Result: "++++ (>75% = ++++)"
- Substance: "84 (GLDTILQNL; listed as Homo sapiens) [compound 84]"
  Measured Endpoint: "Peptide exchange"
  Result: "++++ (>75% = ++++)"
- Substance: "214 (VLMEMSYRL; listed as Homo sapiens) [compound 214]"
  Measured Endpoint: "Peptide exchange"
  Result: "+++ (>50 = +++)"
- Substance: "134 (LLDEVLHTM; listed as Homo sapiens) [compound 134]"
  Measured Endpoint: "Peptide exchange"
  Result: "++++ (>75% = ++++)"
- Substance: "209 (SILDGLIHL; listed as Homo sapiens) [compound 209]"
  Measured Endpoint: "Peptide exchange"
  Result: "+++ (>50 = +++)"
- Substance: "216 (TLLHFLAEL; listed as Homo sapiens) [compound 216]"
  Measured Endpoint: "Peptide exchange"
  Result: "++++ (>75% = ++++)"
- Substance: "182 (SVALVIHNV; listed as Homo sapiens) [compound 182]"
  Measured Endpoint: "Peptide exchange"
  Result: "++++ (>75% = ++++)"
- Substance: "37 (TLKEYLESL; listed as Homo sapiens) [compound 37]"
  Measured Endpoint: "Peptide exchange"
  Result: "+++ (>50 = +++)"
- Substance: "218 (STLHLVLRL; listed as Homo sapiens) [compound 218]"
  Measured Endpoint: "Peptide exchange"
  Result: "+++ (>50 = +++)"
- Substance: "172 (FLPAGIVAV; listed as Homo sapiens) [compound 172]"
  Measured Endpoint: "Peptide exchange"
  Result: "++++ (>75% = ++++)"
- Substance: "6 (SIPDTIASV; listed as Homo sapiens) [compound 6]"
  Measured Endpoint: "Peptide exchange"
  Result: "+++ (>50 = +++)"
- Substance: "192 (KLFTQIFGV; listed as Homo sapiens) [compound 192]"
  Measured Endpoint: "Peptide exchange"
  Result: "++++ (>75% = ++++)"
- Substance: "222 (LLSEIEEHL; listed as Homo sapiens) [compound 222]"
  Measured Endpoint: "Peptide exchange"
  Result: "++++ (>75% = ++++)"
- Substance: "231 (KMVGDVTGA; listed as Homo sapiens) [compound 231]"
  Measured Endpoint: "Peptide exchange"
  Result: "+++ (>50 = +++)"
- Substance: "233 (QLYNQIIKL; listed as Homo sapiens) [compound 233]"
  Measured Endpoint: "Peptide exchange"
  Result: "++++ (>75% = ++++)"

---

Biological target: HLA-A*02:01 (Homo sapiens, UniProt P04439, D140Y/D185E/D98H/E176V/E277Q/G131W/G231S/I119V/I121R/I166T/I218V/L300P/L318F/N151K/N90K/P208A/P217A/Q86G/Q94H/R138H/R169H/T345S)
Assay: MHC binding assay (UV-ligand exchange, β2m ELISA)
Settings: MHC class I binding score; binding to HLA-A*02:01 ranged by peptide exchange yield (UV-ligand exchange, β2m ELISA)
Measured Endpoint: Peptide exchange

- Substance: "118 (TMIEICEKL; listed as Homo sapiens) [compound 118]"
  Result: "++++ (>75% = ++++)"
- Substance: "25 (FIDPEQIQV; listed as Homo sapiens) [compound 25]"
  Result: "+++ (>50 = +++)"
- Substance: "11 (TLIELLLPKL; listed as Homo sapiens) [compound 11]"
  Result: "++++ (>75% = ++++)"
- Substance: "124 (FLPQKIIYL; listed as Homo sapiens) [compound 124]"
  Result: "++++ (>75% = ++++)"
- Substance: "122 (YVDDFGVSV; listed as Homo sapiens) [compound 122]"
  Result: "+++ (>50 = +++)"
- Substance: "107 (TLVAFLQQV; listed as Homo sapiens) [compound 107]"
  Result: "++++ (>75% = ++++)"
- Substance: "189 (KALQFLEEV; listed as Homo sapiens) [compound 189]"
  Result: "++++ (>75% = ++++)"
- Substance: "207 (VQIGDIVTV; listed as Homo sapiens) [compound 207]"
  Result: "++++ (>75% = ++++)"
- Substance: "130 (GLVDVLYTA; listed as Homo sapiens) [compound 130]"
  Result: "+++ (>50 = +++)"

---

Test system: CD8+ T cells
Assay: In vitro immunogenicity: T-cell priming with artificial APCs loaded with peptide/MHC and anti-CD28, pMHC multimer readout
Assay type: cell-based, human
Conditions: Table 10B; HLA-A*02 restricted peptides; percentage of positive wells among evaluable
Measured Endpoint: Wells positive [%]

- Substance: "10 (KMTQYITEL; listed as Homo sapiens) [compound 10]"
  Result: "++ (20%-49% = ++)"
- Substance: "12 (RLDDKTTNV; listed as Homo sapiens) [compound 12]"
  Result: "++ (20%-49% = ++)"
- Substance: "4 (KTWDQVPFSV; listed as Homo sapiens) [compound 4]"
  Result: "+ (<20% = +)"
- Substance: "15 (VLYDPVVGC; listed as Homo sapiens) [compound 15]"
  Result: "+ (<20% = +)"
- Substance: "192 (KLFTQIFGV; listed as Homo sapiens) [compound 192]"
  Result: "+ (<20% = +)"
- Substance: "13 (IQSETTVTV; listed as Homo sapiens) [compound 13]"
  Result: "++ (20%-49% = ++)"
- Substance: "121 (FLEDLVPYL; listed as Homo sapiens) [compound 121]"
  Result: "+++ (50%-69% = +++)"
- Substance: "34 (YLINFEIRSL; listed as Homo sapiens) [compound 34]"
  Result: "+ (<20% = +)"
- Substance: "8 (SIIPYLLEA; listed as Homo sapiens) [compound 8]"
  Result: "++ (20%-49% = ++)"
- Substance: "33 (SLYSYFQKV; listed as Homo sapiens) [compound 33]"
  Result: "++++ (≥70% = ++++)"
- Substance: "21 (FMYNFQLVTL; listed as Homo sapiens) [compound 21]"
  Result: "+ (<20% = +)"
- Substance: "17 (GVVHGVATV; listed as Homo sapiens) [compound 17]"
  Result: "+ (<20% = +)"
- Substance: "116 (LMDETMKEL; listed as Homo sapiens) [compound 116]"
  Result: "+ (<20% = +)"
- Substance: "31 (FLPRKFPSL; listed as Homo sapiens) [compound 31]"
  Result: "++ (20%-49% = ++)"
- Substance: "155 (GLAGFFASV; listed as Homo sapiens) [compound 155]"
  Result: "++++ (≥70% = ++++)"
- Substance: "191 (YLDKMNNNI; listed as Homo sapiens) [compound 191]"
  Result: "+ (<20% = +)"
- Substance: "213 (LLDPTNVFI; listed as Homo sapiens) [compound 213]"
  Result: "++ (20%-49% = ++)"
- Substance: "9 (SLAGLVLYV; listed as Homo sapiens) [compound 9]"
  Result: "++ (20%-49% = ++)"
- Substance: "18 (SLADVVDTL; listed as Homo sapiens) [compound 18]"
  Result: "+ (<20% = +)"
- Substance: "128 (ALFPGDVDRL; listed as Homo sapiens) [compound 128]"
  Result: "+ (<20% = +)"
- Substance: "16 (GLFPSNFVTA; listed as Homo sapiens) [compound 16]"
  Result: "+ (<20% = +)"
- Substance: "211 (FLPFLTTEV; listed as Homo sapiens) [compound 211]"
  Result: "+ (<20% = +)"
- Substance: "133 (ALDPAYTTL; listed as Homo sapiens) [compound 133]"
  Result: "+ (<20% = +)"
- Substance: "11 (TLIELLLPKL; listed as Homo sapiens) [compound 11]"
  Result: "+ (<20% = +)"
- Substance: "232 (KILPDLNTV; listed as Homo sapiens) [compound 232]"
  Result: "+ (<20% = +)"
- Substance: "189 (KALQFLEEV; listed as Homo sapiens) [compound 189]"
  Result: "+ (<20% = +)"
- Substance: "14 (VLYEMLYGL; listed as Homo sapiens) [compound 14]"
  Result: "+++ (50%-69% = +++)"
- Substance: "3 (VLFKDPVSV; listed as Homo sapiens) [compound 3]"
  Result: "+ (<20% = +)"
- Substance: "20 (VISPHGIASV; listed as Homo sapiens) [compound 20]"
  Result: "++ (20%-49% = ++)"
